Tested on: SCN1A mRNA
test protocol: Upregulation of SCN1A mRNA in primary human skin fibroblasts carrying a Dravet-associated mutation (real time PCR)
Type: cell-based
test settings: Homo sapiens, Skin fibroblast, compound 1 uM, 24-48 h, 18S-normalized vs vehicle (DMSO), average upregulation, read-out: fold increase in SCN1A mRNA levels, SCN1A fibroblasts, Avg
Protocol: Transfer of a small molecule into a host cell or organism and determination of its effect upon RNA or protein up-regulation or down regulation can be assessed by several methods well known in the art. […] Fold change in gene expression after treatment with compounds is calculated based on the difference in 18S-normalized dCt values between compound- and vehicle-treated samples. […]
property: fold induction at 1 µM
Write the value as a bare number.

[ask] Identify measured fold induction at 1 µM obtained with SCN1A mRNA for CCOC(=O)C1=C(C)NC(C)=C(C(=O)OC)C1c1cccc([N+](=O)[O-])c1 (racemic) [Nitrendipine] .
[reply] 2.13

###

Tested on: SCN1A mRNA
test protocol: Upregulation of SCN1A mRNA in adult primary human keratinocytes (real time PCR)
Type: cell-based
test settings: Homo sapiens, Keratinocyte, compound 1 uM, 24-48 h, 18S-normalized vs vehicle (DMSO), average upregulation, read-out: fold increase in SCN1A mRNA levels, Keratinocytes, Avg
Where a name gives a salt, the structure may show the parent alone.
property: fold induction at 1 µM
Write the value as a bare number.

COc1ccc2[nH]c([S+]([O-])Cc3ncc(C)c(OC)c3C)nc2c1 (stereo not shown)	2.46
CN1CC(=O)N2[C@H](c3ccc4c(c3)OCO4)c3[nH]c4ccccc4c3C[C@@H]2C1=O	2.79
C[C@]12Cc3c[nH]nc3C[C@@H]1CC[C@@H]1[C@@H]2CC[C@@]2(C)[C@H]1CC[C@]2(C)O	1.76
CCOc1cc(N)c(Cl)cc1C(=O)NCC1CN(Cc2ccc(F)cc2)CCO1 (stereo not shown) [Mosapride]	1.47
Cc1nc2n(c(=O)c1CCN1CCC(c3noc4cc(F)ccc34)CC1)CCCC2	3.02
CN1C(=O)CN=C(c2ccccc2)c2cc([N+](=O)[O-])ccc21	2.47
CC(C)c1ccc2oc3nc(N)c(C(=O)O)cc3c(=O)c2c1	5.41
C[C@H]1CCC[C@H](O)CCCCCc2cc(O)cc(O)c2C(=O)O1	4.51

[ask] Specify reported fold induction at 1 µM for the compound shown: COc1ccc(CN2CCN(C(c3ccc(F)cc3)c3ccc(F)cc3)CC2)c(OC)c1OC
[reply] 3.47

[ask] Specify reported fold induction at 1 µM for the compound shown: COC(=O)C1=C(C)NC(C)=C(C(=O)OC2CCCN(Cc3ccccc3)C2)C1c1cccc([N+](=O)[O-])c1 (stereo not shown)
[reply] 1.69

[ask] Specify reported fold induction at 1 µM for the compound shown: COc1ccc(-c2oc3c(CC=C(C)C)c(O[C@@H]4O[C@H](CO)[C@@H](O)[C@H](O)[C@H]4O)cc(O)c3c(=O)c2O[C@@H]2O[C@@H](C)[C@H](O)[C@@H](O)[C@H]2O)cc1
[reply] 2.29

[ask] Specify reported fold induction at 1 µM for the compound shown: CN[C@H]1CC[C@@H](c2ccc(Cl)c(Cl)c2)c2ccccc21
[reply] 5.18

[ask] Specify reported fold induction at 1 µM for the compound shown: CC(=O)N1CCN(c2ccc(OCC3COC(Cn4ccnc4)(c4ccc(Cl)cc4Cl)O3)cc2)CC1 (stereo not shown)
[reply] 2.73

[ask] Specify reported fold induction at 1 µM for the compound shown: O=c1c2ccccc2[se]n1-c1ccccc1
[reply] 2.67

[ask] Specify reported fold induction at 1 µM for the compound shown: CCN(CC)C(=O)C1(c2ccccc2)CC1CN (stereo not shown) [Milnacipran, hydrochloride]
[reply] 2.72

[ask] Specify reported fold induction at 1 µM for the compound shown: CCc1nn(CCCN2CCN(c3cccc(Cl)c3)CC2)c(=O)n1CCOc1ccccc1 [Nefazadone, monohydrochloride]
[reply] 4.53
